Tested on: TR alpha-UAS-bla HEK 293T Cells
Assay procedure: TR cell-based agonist detection, β-lactamase reporter (LiveBLAzer FRET B/G), TR alpha
Condition: Homo sapiens, HEK-293T, 24 h; TR_cell-based agonist, TR_α; read-out: Maximum activity ratio
Property name: Emax (%)

{"Compound": "Cn1cnc2cc(Oc3c(Br)cc(-n4nc(C#N)c(=O)[nH]c4=O)cc3Br)ccc21 [Compound 4]", "Assay system": "TR alpha-UAS-bla HEK 293T Cells", "Unit info": "%", "Val": 40}
{"Compound": "Cn1cnc2ccc(Oc3c(Br)cc(-n4nc(C#N)c(=O)[nH]c4=O)cc3Br)cc21 [Compound 1]", "Assay system": "TR alpha-UAS-bla HEK 293T Cells", "Unit info": "%", "Val": 205}
{"Compound": "CC(C)c1cc(Oc2c(Cl)cc(-n3nc(C#N)c(=O)[nH]c3=O)cc2Cl)n[nH]c1=O [MGL3196, reference compound]", "Assay system": "TR alpha-UAS-bla HEK 293T Cells", "Unit info": "%", "Val": 134}
{"Compound": "Cn1cnc2cc(Oc3c(Cl)cc(-n4nc(C#N)c(=O)[nH]c4=O)cc3Cl)ccc21 [Compound 2]", "Assay system": "TR alpha-UAS-bla HEK 293T Cells", "Unit info": "%", "Val": 35}
{"Compound": "N#Cc1nn(-c2cc(Cl)c(Oc3ccc4ncn(C5CCCC5)c4c3)c(Cl)c2)c(=O)[nH]c1=O [Compound 8]", "Assay system": "TR alpha-UAS-bla HEK 293T Cells", "Unit info": "%", "Val": 72}
{"Compound": "N#Cc1nn(-c2cc(Cl)c(Oc3ccc4ncn(C5CCN(Cc6ccccc6)C5)c4c3)c(Cl)c2)c(=O)[nH]c1=O (stereo not shown) [Compound 7]", "Assay system": "TR alpha-UAS-bla HEK 293T Cells", "Unit info": "%", "Val": 19}
{"Compound": "Cn1c(CCc2ccccc2)nc2cc(Oc3c(Cl)cc(-n4nc(C#N)c(=O)[nH]c4=O)cc3Cl)ccc21 [Compound 9]", "Assay system": "TR alpha-UAS-bla HEK 293T Cells", "Unit info": "%", "Val": 31}
